Tested on: HIV-1 303B
Assay Protocol: microbe, parasite or virus in culture
Format: cell-based
Condition Label: in combination with Example 19; EC50 ratio Example 19:comparator 1:1; 95% CI in parenthesis
Property Name: Combination Indices at 75% HIV Inhibition (Confidence Interval)

// worked examples, Combination Indices at 75% HIV Inhibition (Confidence Interval) included
Molecule	Experimental Result
Cc1cn([C@H]2C[C@H](N=[N+]=[N-])[C@@H](CO)O2)c(=O)[nH]c1=O [Zidovudine]	0.56 (0.41, 0.70)
O=C1Nc2ccc(Cl)cc2[C@@](C#CC2CC2)(C(F)(F)F)O1 [Efavirenz, efavirenz]	0.76 (0.64, 0.88)

Requested read-out: Combination Indices at 75% HIV Inhibition (Confidence Interval). Entry: C[C@H](Cn1cnc2c(N)ncnc21)OCP(=O)(O)O [Tenofovir, tenofovir] 0.54 (0.45, 0.62)
